Data provenance is the NIST ThermoML archive (doi:10.1021/je200710t).

- test_conditions: 328.15 K; 101.33 kPa; Liquid
value_kind: mass density (kg/m3)

- molecule: "N#CCCn1cc[n+](Cc2ccccc2)c1.[Cl-] [1-(2-cyanoethyl)-3-(phenylmethyl)-1H-imidazolium chloride]"
  unit_abbrev: "kg/m3"
  mass density: 1185.59
- molecule: "N#CCCn1cc[n+](CCO)c1.[Cl-] [1-(2-cyanoethyl)-3-(2-hydroxyethyl)-1H-imidazolium chloride]"
  unit_abbrev: "kg/m3"
  mass density: 1238.32
- molecule: "CCCC[n+]1ccn(CCC#N)c1.[Cl-] [3-butyl-1-(2-cyanoethyl)-1H-imidazol-3-ium chloride]"
  unit_abbrev: "kg/m3"
  mass density: 1110.18
- molecule: "C=CC[n+]1ccn(CCC#N)c1.[Cl-] [3-allyl-1-(2-cyanoethyl)-1H-imidazolium chloride]"
  unit_abbrev: "kg/m3"
  mass density: 1152.91

----------
- test_conditions: 338.15 K; 101.33 kPa; Liquid
value_kind: mass density (kg/m3)

- compound: "N#CCCn1cc[n+](Cc2ccccc2)c1.[Cl-] [1-(2-cyanoethyl)-3-(phenylmethyl)-1H-imidazolium chloride]"
  unit_abbrev: "kg/m3"
  assay_value: 1179.8
- compound: "N#CCCn1cc[n+](CCO)c1.[Cl-] [1-(2-cyanoethyl)-3-(2-hydroxyethyl)-1H-imidazolium chloride]"
  unit_abbrev: "kg/m3"
  assay_value: 1232.86
- compound: "CCCC[n+]1ccn(CCC#N)c1.[Cl-] [3-butyl-1-(2-cyanoethyl)-1H-imidazol-3-ium chloride]"
  unit_abbrev: "kg/m3"
  assay_value: 1103.87
- compound: "C=CC[n+]1ccn(CCC#N)c1.[Cl-] [3-allyl-1-(2-cyanoethyl)-1H-imidazolium chloride]"
  unit_abbrev: "kg/m3"
  assay_value: 1147.11

----------
- test_conditions: 323.15 K; 101.33 kPa; Liquid
value_kind: viscosity (mPa·s)

- molecule: "CCCC[n+]1ccn(CCC#N)c1.[Cl-] [3-butyl-1-(2-cyanoethyl)-1H-imidazol-3-ium chloride]"
  viscosity (mPa·s): 314

P: C=CC[n+]1ccn(CCC#N)c1.[Cl-] [3-allyl-1-(2-cyanoethyl)-1H-imidazolium chloride]
Q: N#CCCn1cc[n+](Cc2ccccc2)c1.[Cl-] [1-(2-cyanoethyl)-3-(phenylmethyl)-1H-imidazolium chloride]
Exam item: Higher viscosity: P or Q ? Answer format: the label of the selected item.
Marked response: Q

----------
- test_conditions: 328.15 K; 101.33 kPa; Liquid
value_kind: viscosity (mPa·s)

Recorded results for 2 molecules are shown here.
- molecule: "N#CCCn1cc[n+](CCO)c1.[Cl-] [1-(2-cyanoethyl)-3-(2-hydroxyethyl)-1H-imidazolium chloride]"
  value_kind: "viscosity"
  unit_abbrev: "mPa·s"
  assay_value: 4213
- molecule: "CCCC[n+]1ccn(CCC#N)c1.[Cl-] [3-butyl-1-(2-cyanoethyl)-1H-imidazol-3-ium chloride]"
  value_kind: "viscosity"
  unit_abbrev: "mPa·s"
  assay_value: 224

I: N#CCCn1cc[n+](Cc2ccccc2)c1.[Cl-] [1-(2-cyanoethyl)-3-(phenylmethyl)-1H-imidazolium chloride]
II: C=CC[n+]1ccn(CCC#N)c1.[Cl-] [3-allyl-1-(2-cyanoethyl)-1H-imidazolium chloride]
Exam item: Higher viscosity: I or II ? Answer format: the label of the selected item.
Marked response: I
(I: 42665 mPa·s, II: 873 mPa·s)

----------
- test_conditions: 353.15 K; 101.33 kPa; Liquid
value_kind: mass density (kg/m3)

- compound: "N#CCCn1cc[n+](CCO)c1.[Cl-] [1-(2-cyanoethyl)-3-(2-hydroxyethyl)-1H-imidazolium chloride]"
  unit_abbrev: "kg/m3"
  assay_value: 1224.57
- compound: "C=CC[n+]1ccn(CCC#N)c1.[Cl-] [3-allyl-1-(2-cyanoethyl)-1H-imidazolium chloride]"
  unit_abbrev: "kg/m3"
  assay_value: 1138.42
- compound: "CCCC[n+]1ccn(CCC#N)c1.[Cl-] [3-butyl-1-(2-cyanoethyl)-1H-imidazol-3-ium chloride]"
  unit_abbrev: "kg/m3"
  assay_value: 1094.44
- compound: "N#CCCn1cc[n+](Cc2ccccc2)c1.[Cl-] [1-(2-cyanoethyl)-3-(phenylmethyl)-1H-imidazolium chloride]"
  unit_abbrev: "kg/m3"
  assay_value: 1171.16
